# assay_protocol: Quantitative High-Throughput drug screen in 47 multiple myeloma cell lines against the NCATS MIPE library collection: KMS28PE_JCRB cell viability assay (AID 1918983); further: nearly all actives have a fitted effect of over 35% in size; further: potency means the concentration at half of the fitted maximal effect
# condition_label: KMS28PE multiple myeloma viability, CellTiter-Glo ATP, 48 h; series mostly up to 45.8 µM
Results filed as inconclusive are left out. Activity calls are given as the source filed them. The call rests on the fitted dose curve; in most records, active means well fitted cell-killing curve with a large enough effect; inconclusive means small, poorly fitted or top-dose-only effect, or effect the other way; inactive means no such curve, though single readings can be large or run the other way.
reported_metric: Potency

Below, 4 compounds whose answers are already recorded.
CCC(=O)OC1CCC2C3CCC4=CC(=O)CC[C@@]4(C)C3CC[C@]12C (stereo partly drawn)    inactive
CCNC(=O)C[C@@H]1N=C(c2ccc(Cl)cc2)c2cc(OC)ccc2-n2c(C)nnc21    264 nM (active)
CC(=O)OCC1=C(C(=O)O)N2C(=O)[C@@H](N)[C@@H]2SC1    inactive
C=CCON=C(C[C@H]1O[C@@H]2O[C@]3(C)CC[C@@H]4[C@H](C)CC[C@@H]([C@H]1C)[C@@]24OO3)[C@H]1O[C@@H]2O[C@]3(C)CC[C@H]4[C@H](C)CC[C@@H]([C@@H]1C)[C@@]24OO3    264 nM (active)

Please state Potency for every compound in the list that follows.
1. C[C@@]12OC(=O)[C@]1([C@@H](O)[C@@H]1C=CCCC1)NC(=O)[C@H]2CCCl
2. C[C@@H]1CC[C@H]2[C@@H](C)C(=O)O[C@@H]3O[C@@]4(C)CC[C@H]1[C@]32OO4
3. CC=C(C)C(=O)O[C@H]1C(C)=C2[C@@H]3OC(=O)[C@@](C)(O)[C@@]3(O)[C@@H](OC(=O)CCC)C[C@](C)(OC(C)=O)[C@@H]2[C@@H]1OC(=O)CCCCCCC

["8.3 nM (active)", "inactive", "132 nM (active)"]

Please state Potency for every compound in the list that follows.
1. CC(=O)N(C)c1cccc(-c2ccnc3c(C(=O)c4cccs4)cnn23)c1
2. Clc1ccccc1C(c1ccccc1)(c1ccccc1)n1cccn1
3. c1ccc2c(CN3CCNCC3)cccc2c1
4. COc1ccc2c(c1)CN(C)CC2c1ccc(Cl)c(Cl)c1 (stereo not drawn)
5. CCCN1CCO[C@@H]2c3cc(O)ccc3OC[C@@H]21
6. COC[C@H]1OC(=O)c2coc3c2[C@@]1(C)C1=C(C3=O)[C@@H]2CC[C@H](O)[C@@]2(C)C[C@@H]1OC(C)=O
7. CC(C)[C@]12O[C@@H]1[C@@H]1O[C@]13[C@]1(O[C@H]1C[C@@H]1C4=C(CC[C@@]13C)C(=O)OC4)[C@H]2O

["inactive", "11800 nM (active)", "inactive", "18700 nM (active)", "inactive", "1320 nM (active)", "inactive"]

Please state Potency for every compound in the list that follows.
1. COc1ccc(N(C(=O)Oc2c(C)cccc2C)c2ccnc(Nc3ccc(N4CCN(C)CC4)cc3)n2)c(OC)c1
2. CC(C)(O)C=CC(=O)[C@](C)(O)[C@H]1[C@H](O)C[C@]2(C)[C@@H]3CC=C4[C@@H](C=C(O)C(=O)C4(C)C)[C@]3(C)C(=O)C[C@@]12C
3. CC(C)N(CCNC(=O)CN1CCCC1=O)C(C)C

1: 18700 nM (active); 2: 1660 nM (active); 3: inactive

Report measured Potency; entry is `O=[N+]([O-])c1ncc[nH]1`
105 nM (active)

# credit: PubChem BioAssay (NCATS)
